Test system: MIA PaCa-2 cells
Assay: Gemcitabine Combination Cell Assay (Cell Titer Glo)
Format: cell-based
Conditions: Homo sapiens, MIA PaCa-2, 72 h, read-out: Chk1 IC50 (nM)
Counter-ions that a name gives are not always drawn.
Reported IC50 values are given for each entry in this list.
measured_attribute: IC50 (nM)

compound | readout_units | reported
COc1cc(C2CCN(C)CC2(F)F)ccc1-c1cc(Nc2cnc(C#N)cn2)n[nH]1 (stereo not shown) [Example 97, hydrochloride] | nM | 1500
COc1cc(N2CCN(C)CC2)ccc1-c1cc(Nc2cnc(C#N)cn2)n[nH]1 [Example 22, hydrochloride] | nM | 88
COc1cc(CN2CC[C@@H](F)C2)ccc1-c1cc(Nc2cnc(C#N)cn2)n[nH]1 [Example 123, hydrochloride] | nM | 440
COc1cc(CNCc2ccccc2)ccc1-c1cc(Nc2cnc(C#N)cn2)n[nH]1 [Example 3, hydrochloride] | nM | 275

###

IC50: recorded values
Molecular target: Chk-1 kinase (Homo sapiens (Human), UniProt O14757)
Sequence (O14757 whole entry): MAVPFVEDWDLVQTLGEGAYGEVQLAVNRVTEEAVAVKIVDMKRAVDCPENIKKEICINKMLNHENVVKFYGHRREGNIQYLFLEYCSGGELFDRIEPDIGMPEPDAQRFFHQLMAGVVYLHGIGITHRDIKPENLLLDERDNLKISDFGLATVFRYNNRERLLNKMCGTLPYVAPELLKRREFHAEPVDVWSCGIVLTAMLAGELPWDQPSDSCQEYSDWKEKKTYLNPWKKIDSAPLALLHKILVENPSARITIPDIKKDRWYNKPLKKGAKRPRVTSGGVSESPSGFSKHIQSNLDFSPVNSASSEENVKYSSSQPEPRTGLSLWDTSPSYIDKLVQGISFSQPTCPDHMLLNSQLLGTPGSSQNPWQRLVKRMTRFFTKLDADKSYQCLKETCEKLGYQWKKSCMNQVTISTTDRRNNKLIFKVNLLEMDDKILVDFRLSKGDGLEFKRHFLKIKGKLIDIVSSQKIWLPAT
Test: Chk-1 Kinase Inhibiting Activity (33P-ATP filter assay, CHKtide substrate)
Assay type: biochemical
Details: against Chk-1 kinase; read-out: IC50
Structures can show the parent of a compound that is named as a salt.
measured_attribute: IC50

compound | reported
COc1cc(C2CCN(C)CC2)ccc1-c1cc(Nc2ccc(C#N)cn2)n[nH]1 | 14000 pM
COc1cc(C2CCOCC2)ccc1-c1cc(Nc2cnc(C#N)cn2)n[nH]1 | 1500 pM
CCN1CCC(Oc2ccc(-c3cc(Nc4cnc(C#N)cn4)n[nH]3)c(OC)c2)CC1 | 110 pM
COc1cc(C2CCN(C(C)C)CC2F)ccc1-c1cc(Nc2cnc(C#N)cn2)n[nH]1 (centres unmarked) | 79 pM
COc1cc(NCC2CCN(C)CC2)ccc1-c1cc(Nc2cnc(C#N)cn2)n[nH]1 [Example 107, hydrochloride] | 81 pM
COc1cc(OCC2CCNCC2)ccc1-c1cc(Nc2cnc(C#N)cn2)n[nH]1 | 95 pM
COc1c(-c2cc(Nc3cnc(C#N)cn3)n[nH]2)ccc(C2CCNCC2)c1Cl | 10000 pM
COc1cc(CO[C@@H]2CCN(C(C)C)C2)ccc1-c1cc(Nc2cnc(C#N)cn2)n[nH]1 | 19 pM

###

Items are presented alongside their recorded 2xLS.
Test system: MIA PaCa-2 cells
Assay: Gemcitabine Combination Cell Assay (Cell Titer Glo)
Assay type: cell-based
Settings: approximate concentration of Chk1 inhibitor that results in a two-fold reduction in the IC50 of gemcitabine alone, MIA PaCa-2 cells, 72 h
Experimental: Gemcitabine Combination Cell Assay Exponentially growing MIA PaCa-2 (ATCC CRL-1420) cells are treated with trypsin to remove cells from the plate surface. […] Luminescence (relative light units, RLU) is recorded using a BMG Polarstar Omega plate reader. […] The IC50 for gemcitabine alone and at each concentration of Chk1 is determined using a four-parameter non-linear regression curve fit. […]

compound | 2xLS
COc1cc(CN(C)C2CCOC2)ccc1-c1cc(Nc2cnc(C#N)cn2)n[nH]1 (centres unmarked) | 10 nM
COc1cc(N2CCN(C(C)C)CC2)ccc1-c1cc(Nc2cnc(C#N)cn2)n[nH]1 | <3 nM
CCN1CCC(CNc2ccc(-c3cc(Nc4cnc(C#N)cn4)n[nH]3)c(OC)c2)CC1 | <3 nM
COc1cc(N2CCN[C@H](C)C2)ccc1-c1cc(Nc2cnc(C#N)cn2)n[nH]1 | <3 nM
COc1cc(CNCc2ccc(F)cc2)ccc1-c1cc(Nc2cnc(C#N)cn2)n[nH]1 | 10 nM
COc1cc(N2CCNCC2)ccc1-c1cc(Nc2cnc(C#N)cn2)n[nH]1 | <3 nM
COc1cc(C2CCCCN2C)ccc1-c1cc(Nc2cnc(C#N)cn2)n[nH]1 (centres unmarked) | 30 nM
COc1cc(OCC2CCOCC2)ccc1-c1cc(Nc2cnc(C#N)cn2)n[nH]1 | >3000 nM

###

Tested on: MIA PaCa-2 cells
Assay: Gemcitabine Combination Cell Assay (Cell Titer Glo)
Type: cell-based
Conditions: approximate concentration of Chk1 inhibitor that results in a two-fold reduction in the IC50 of gemcitabine alone, MIA PaCa-2 cells, 72 h
Counter-ions that a name gives are not always drawn.

compound | comparator | 2xLS (nM)
COc1cc(NC2CCN(C(C)C)CC2)ccc1-c1cc(Nc2cnc(C#N)cn2)n[nH]1 | < | 3
COc1cc(CN2CC[C@@H](OC)C2)ccc1-c1cc(Nc2cnc(C#N)cn2)n[nH]1 | = | 10
COc1cc(C2CCNCC2)ccc1-c1cc(Nc2cnc(Cl)cn2)n[nH]1 | = | 100
COc1cc(C2CCN(CC(N)=O)CC2)ccc1-c1cc(Nc2cnc(C#N)cn2)n[nH]1 | = | 10
COc1cc(CNC2CCN(C)CC2)ccc1-c1cc(Nc2cnc(C#N)cn2)n[nH]1 | = | 3
CCN1CCN(c2ccc(-c3cc(Nc4cnc(C#N)cn4)n[nH]3)c(OC)c2)CC1 | < | 3
COc1cc(C2CCN(C)CC2)ccc1-c1cc(Nc2ccc(C#N)cn2)n[nH]1 | = | 300
COc1cc(OC[C@@H]2CCCN2C)ccc1-c1cc(Nc2cnc(C#N)cn2)n[nH]1 [Example 104, hydrochloride] | = | 3
COc1cc(CN(C)C2CCOCC2)ccc1-c1cc(Nc2cnc(C#N)cn2)n[nH]1 | < | 3
COc1cc(C[C@H]2CCCN2C(C)C)ccc1-c1cc(Nc2cnc(C#N)cn2)n[nH]1 | < | 3
COc1cc(CC2CCN(C(C)C)CC2)ccc1-c1cc(Nc2cnc(C#N)cn2)n[nH]1 | = | 10
COc1cc(C2(F)CCN(C)CC2)ccc1-c1cc(Nc2cnc(C#N)cn2)n[nH]1 [Example 64, hydrochloride] | = | 3
COc1cc(NCC2CCOCC2)ccc1-c1cc(Nc2cnc(C#N)cn2)n[nH]1 | = | 3
COc1cc(CNC(C)(C)CN2CCOCC2)ccc1-c1cc(Nc2cnc(C#N)cn2)n[nH]1 | = | 3
COc1cc(N2CCOCC2)ccc1-c1cc(Nc2cnc(C#N)cn2)n[nH]1 | = | 3
COc1cc(OC2CCN(C(C)C)CC2)ccc1-c1cc(Nc2cnc(C#N)cn2)n[nH]1 | < | 3
COc1cc(C2(F)CCN(C(C)C)CC2)ccc1-c1cc(Nc2cnc(C#N)cn2)n[nH]1 | < | 3

###

Tested on: MIA PaCa-2 cells
Experiment: Gemcitabine Combination Cell Assay (Cell Titer Glo)
Type: cell-based
Settings: Homo sapiens, MIA PaCa-2, 72 h, read-out: Chk1 IC50 (nM)
Where a name gives a salt, the structure may show the parent alone.
Could you mark each record 1.0 if its IC50 falls strictly under 300 nM, and 0.0 if it equals or exceeds it?

molecule | target_desc | class
COc1cc([C@@H]2CN(C)CCO2)ccc1-c1cc(Nc2cnc(C#N)cn2)n[nH]1 [Example 117, hydrochloride] | MIA PaCa-2 cells | 0.0
COc1cc(C2(F)CCN(C)CC2)ccc1-c1cc(Nc2cnc(C#N)cn2)n[nH]1 [Example 64, hydrochloride] | MIA PaCa-2 cells | 1.0
COc1cc(OC2CCN(C)CC2)ccc1-c1cc(Nc2cnc(C#N)cn2)n[nH]1 [Example 28, hydrochloride] | MIA PaCa-2 cells | 1.0
COc1cc(CNC2CCOCC2)ccc1-c1cc(Nc2cnc(C#N)cn2)n[nH]1 [Example 14, hydrochloride] | MIA PaCa-2 cells | 0.0
COc1cc(OC[C@@H]2CCCN2C)ccc1-c1cc(Nc2cnc(C#N)cn2)n[nH]1 [Example 104, hydrochloride] | MIA PaCa-2 cells | 1.0
CCN1CCC(c2ccc(-c3cc(Nc4cnc(C#N)cn4)n[nH]3)c(OC)c2)CC1 [Example 60, hydrochloride] | MIA PaCa-2 cells | 0.0
COc1cc(OC[C@H]2CCCN2C)ccc1-c1cc(Nc2cnc(C#N)cn2)n[nH]1 [Example 103, hydrochloride] | MIA PaCa-2 cells | 1.0

###

Tested on: MIA PaCa-2 cells
Assay: Gemcitabine Combination Cell Assay (Cell Titer Glo)
Assay type: cell-based
Conditions: approximate concentration of Chk1 inhibitor that results in a two-fold reduction in the IC50 of gemcitabine alone, MIA PaCa-2 cells, 72 h
Where a name gives a salt, the structure may show the parent alone.
measured_attribute: 2xLS (nM)

molecule | comparator | reported
COc1c(-c2cc(Nc3cnc(C#N)cn3)n[nH]2)ccc(C2CCN(C)CC2)c1Cl | = | 100
COc1cc(OCC2CCNCC2)ccc1-c1cc(Nc2cnc(C#N)cn2)n[nH]1 | = | 3
COc1cc(C2CCN(C)CC2)ccc1-c1cc(Nc2ccc(C#N)nc2)n[nH]1.Cl | = | 10
COc1cc(N2CCN(C(C)C)[C@H](C)C2)ccc1-c1cc(Nc2cnc(C#N)cn2)n[nH]1 | < | 3
COc1cc(CNCC2CC2)ccc1-c1cc(Nc2cnc(C#N)cn2)n[nH]1 | = | 3
COc1cc(OC[C@H]2CCCN2C)ccc1-c1cc(Nc2cnc(C#N)cn2)n[nH]1 [Example 103, hydrochloride] | = | 3
COc1cc(CO[C@@H]2CCN(C(C)C)C2)ccc1-c1cc(Nc2cnc(C#N)cn2)n[nH]1 | < | 10
CCN1CCC(Oc2ccc(-c3cc(Nc4cnc(C#N)cn4)n[nH]3)c(OC)c2)CC1 | = | 3
COc1cc(CNCCN2CCOCC2)ccc1-c1cc(Nc2cnc(C#N)cn2)n[nH]1 | = | 3
COc1cc(N2CCNCC2)cc(F)c1-c1cc(Nc2cnc(C#N)cn2)n[nH]1 | = | 3
COc1cc(N2CCN(C(C)C)CC2)cc(F)c1-c1cc(Nc2cnc(C#N)cn2)n[nH]1 | < | 3
COCCN1CCC(c2ccc(-c3cc(Nc4cnc(C#N)cn4)n[nH]3)c(OC)c2)CC1 | < | 3
COc1cc(OCC2CCN(C)CC2)ccc1-c1cc(Nc2cnc(C#N)cn2)n[nH]1 | = | 3
COc1cc(C2CN(C)C2)ccc1-c1cc(Nc2cnc(C#N)cn2)n[nH]1 | = | 3
COc1cc(O[C@H]2CCN(C)C2)ccc1-c1cc(Nc2cnc(C#N)cn2)n[nH]1 | < | 3
COc1cc([C@H]2CCN(C)C[C@@H]2F)ccc1-c1cc(Nc2cnc(C#N)cn2)n[nH]1 | = | 10
CCN1CCC[C@H]1COc1ccc(-c2cc(Nc3cnc(C#N)cn3)n[nH]2)c(OC)c1 | < | 3
